testedTarget: T1, human PVRIG expressed on cells (human, UniProt Q6DKI7 41-326)
T1 sequence (looked up): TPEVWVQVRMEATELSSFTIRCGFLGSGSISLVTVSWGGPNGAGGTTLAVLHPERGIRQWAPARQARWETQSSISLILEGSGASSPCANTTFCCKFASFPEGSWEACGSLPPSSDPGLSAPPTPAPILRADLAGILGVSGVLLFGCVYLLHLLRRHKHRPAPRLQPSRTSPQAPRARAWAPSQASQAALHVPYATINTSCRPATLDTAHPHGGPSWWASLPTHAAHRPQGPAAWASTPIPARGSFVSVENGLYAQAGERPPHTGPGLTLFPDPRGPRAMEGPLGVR
assay: cell-based or functional assay
quantityKind: NK92 killing of K562, killing activity (%), 20 nM antibody
Record the value in %, omitting the unit from your answer.

Value of measured NK92 killing of K562, killing activity (%), 20 nM antibody for the entry anti-PVRIG antibody 30 (antibody, human IgG4 S228P, F234A L235A, V domains shown, no light chain) VH: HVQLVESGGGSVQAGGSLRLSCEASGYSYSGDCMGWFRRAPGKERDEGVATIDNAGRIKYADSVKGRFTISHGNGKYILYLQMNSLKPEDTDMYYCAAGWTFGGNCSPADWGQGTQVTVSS : 11.9

Value of measured NK92 killing of K562, killing activity (%), 20 nM antibody for the entry humanized anti-PVRIG antibody 20H5 (antibody, human IgG4 S228P, F234A L235A, V domains shown) VH: EVQLVESGGGLVQPGGSLRLSCAASGYTSRTDCMGWFRQAPGKEHEGVAHIDSDGIPRYVDSVKGRFTISQDHAKNSLYLQMNSLRAEDTAVYYCVVGFKFDEDYCAPNDWGQGTMVTVSS : 9.9

Value of measured NK92 killing of K562, killing activity (%), 20 nM antibody for the entry humanized anti-PVRIG antibody 30H2 (antibody, human IgG4 S228P, F234A L235A, V domains shown) VH: EVQLVESGGGLVQPGGSLRLSCAASGFTFSGDCMGWFRQAPGKGLDEGVATIDNAGRIKYADSVKGRFTISRDNAKNSLYLQMNSLRAEDTAVYYCAAGWTFGGQCSPADWGQGTQVTVSS : 14.5

Value of measured NK92 killing of K562, killing activity (%), 20 nM antibody for the entry positive antibody Tab5 (antibody, human IgG4 S228P, kappa, F234A L235A, V domains shown, Variable regions of CPA.7.021 (WO2016134333A1) on human IgG4 (S228P/F234A/L235A/K447A) and human kappa constant regions) VH: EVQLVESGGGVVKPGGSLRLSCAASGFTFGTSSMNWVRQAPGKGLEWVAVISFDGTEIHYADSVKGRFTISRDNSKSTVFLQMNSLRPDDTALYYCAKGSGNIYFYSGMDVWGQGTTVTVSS VL: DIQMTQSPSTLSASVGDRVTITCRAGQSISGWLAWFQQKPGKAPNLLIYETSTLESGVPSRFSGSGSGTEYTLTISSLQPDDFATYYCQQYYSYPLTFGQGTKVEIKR : 7.9

src = patent US20240376207A1
